# protocol_details: Lapatinib pharmacokinetics in rat blood plasma (BP), HPLC-MS/MS, noncompartmental analysis
# Type: in vivo, rats
# recorded_conditions: male, Wistar, rat, plasma, oral, lapatinib 100 mg/kg + elacridar, 8 h; read-out: Clapatinib in BP, S
outcome_measure: concentration at 8 h (ng/mL)
Provide only the numeric value, understood in ng/mL.

Identify measured concentration at 8 h corresponding to CS(=O)(=O)CCNCc1ccc(-c2ccc3ncnc(Nc4ccc(OCc5cccc(F)c5)c(Cl)c4)c3c2)o1
1780

---

# protocol_details: Lapatinib pharmacokinetics in rat blood plasma (BP), HPLC-MS/MS, noncompartmental analysis
# Assay type: in vivo, rats
# recorded_conditions: male, Wistar, rat, plasma, oral, lapatinib 100 mg/kg + elacridar, 6 h; read-out: Clapatinib in BP, single rat
# Description: This study was conducted on rats, which are a promising model to predict P-gp-based drug-drug interactions at the human BBB [15]. The animals were allowed to acclimate for one week before the beginning of the experiments. Adult male Wistar-strain rats (weight 470–525 g) were used in the study. […]
outcome_measure: concentration at 6 h (ng/mL)
All answers are understood in ng/mL, so give the number only.

Specify measured concentration at 6 h for CS(=O)(=O)CCNCc1ccc(-c2ccc3ncnc(Nc4ccc(OCc5cccc(F)c5)c(Cl)c4)c3c2)o1 [lapatinib] .
1360

Hello, the source for this data is paper PMC7211195, in case you need it.
